# testMethodNotes: soluble on expression in E. coli; label from the status in PepcDB or PDB records
quantityName: soluble on expression in E. coli

MMGNKLTLPAELPDEQDLRAVLAYNMRLFRVNKGWSQEELARQCGLDRTYVSAVERKRWNIALSNIEKMAAALGVAAYQLLLPPQERLKLMTNSADTRQMPSESGI ... not soluble
GPGSMETFRERTLANRYQPRQHLPPEFPGVLKEYAREVLREQPEDILQWSANYFKRLAREMDAKPAGEHRMTAPALPHLESRPNTREEEEEEYGERLQQYIDMFVEHDSENNGVLPVKAIKEALLKSYGLTLPQALYVLTATQLVEKEPVNYAEFACESFPALRFVWSTEHNFQVSNREDTTVHGLSRIDVQQEFLKLLRFADRSDTSLLSIDQYMDVLRCAPYHLTTRDLRILRVEAELNERHEVNYEEELLHIFDRLLLAEQFAQLDSDD ... soluble
MTMTTMPESLNSPVSGKAVFMEFGPPNQQMSPSPMSHGHYSMHCLHSAGHSQPDGAYSSASSFSRPLGYPYVNSVSSHASSPYISSVQSYPGSASLAQSRLEDPGQDLVPKQAIQVQEADEAGWGGSGG ... soluble
MQRETGSERVDVDMEKPGMISRWYDDKGFGFILPKTGGEEVFLHISAFRGDRRPRQGDQVWFLASQDAQGRLRAERARLDALTIDPPTVRRGAQAPVTRAQARPAPTPPSALQRPLA ... not soluble

Reference source: the DeepSol protein solubility set
